Where these numbers come from: patent US9944700B2

# System: bronchospheres (human bronchial epithelial cells)
# Measurement Protocol: Bronchosphere assay of secreted recombinant human proteins, qPCR of cell type markers and immunostaining
# Type: cell-based
# Measurement Context: markers FOXJ1, DNAI2
# Method: Human bronchial epithelial (HBE) cells and culture media were obtained from Lonza. Air-liquid interface cultures using passage 2 (P2) cells were performed as previously described (Danahay, H. et al., American journal of physiology. Lung cellular and molecular physiology 282, L226-236 (2002)). […] Three-dimensional cultures were analyzed at the time points indicated. […]
Measurement Name: expression of both of the ciliated cell markers

Molecule	Result
IL-28B: secreted, recombinant human protein profiled in the bronchosphere assay (protein, UniProt Q8IZI9 22-196, looked up) Interferon lambda-3: VPVARLRGALPDARGCHIAQFKSLSPQELQAFKRAKDALEESLLLKDCKCRSRLFPRTWDLRQLQVRERPVALEAELALTLKVLEATADTDPALGDVLDQPLHTLHHILSQLRACIQPQPTAGPRTRGRLHHWLHRLQEAPKKESPGCLEASVTFNLFRLLTRDLNCVASGDLCV	attenuated
IL-28A: secreted, recombinant human protein profiled in the bronchosphere assay (protein, UniProt Q8IZJ0 26-200, looked up) Interferon lambda-2: VPVARLHGALPDARGCHIAQFKSLSPQELQAFKRAKDALEESLLLKDCRCHSRLFPRTWDLRQLQVRERPMALEAELALTLKVLEATADTDPALVDVLDQPLHTLHHILSQFRACIQPQPTAGPRTRGRLHHWLYRLQEAPKKESPGCLEASVTFNLFRLLTRDLNCVASGDLCV	attenuated
IL-29: secreted, recombinant human protein profiled in the bronchosphere assay (protein, UniProt Q8IU54 20-200, looked up) Interferon lambda-1: GPVPTSKPTTTGKGCHIGRFKSLSPQELASFKKARDALEESLKLKNWSCSSPVFPGNWDLRLLQVRERPVALEAELALTLKVLEAAAGPALEDVLDQPLHTLHHILSQLQACIQPQPTAGPRPRGRLHHWLHRLQEAPKKESAGCLEASVTFNLFRLLTRDLKYVADGNLCLRTSTHPEST	attenuated
